- Tested on: PIKFYVE
- EXPERIMENTAL CONDITIONS: concentration: 1 μM, replicates: in singlicate; n = 1;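 also: KINOMEscan kinase panel screen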
MEASURED PROPERTY: %Inh (%)

| MOLECULE | MEASURED PROPERTY | ENDPOINT VALUE |
| --- | --- | --- |
| O=C(Nc1ccc2c(c1)OCO2)NC1CCN(c2ccnc(NCc3ccc(F)cc3)n2)CC1 | %Inh | 0 |
| CCS(=O)(=O)c1ccc(OC)c(Nc2ncc(-c3ccc(F)cc3)o2)c1.Cl | %Inh | 0 |
| Cc1ccc(Oc2ccc(Nc3ncnc4cc[nH]c34)cc2C)cn1 | %Inh | 1 |
| Nc1n[nH]c2ncc(-c3ccccc3)cc12 | %Inh | 0 |
| CCC(=O)c1c(-c2ccccc2)c2cc(Cl)ccc2c(=O)n1Cc1cc(S(C)(=O)=O)n(CCC(C)(C)O)n1 | %Inh | 0 |
| CCc1nc(-c2cccc(C)c2)c(-c2ccncc2)s1 | %Inh | 39 |
| Cc1nnc(-c2ccc3ncn(-c4ccc(S(C)=O)cc4)c3c2)o1 (stereo not shown) | %Inh | 19 |
| CCC(=O)c1c(-c2ccccc2)c2cc(Cl)ccc2c(=O)n1Cc1cc(S(C)(=O)=O)n(CC(F)F)n1 | %Inh | 0 |
| OCCCNc1nccc(-c2c(-c3cccc(C(F)(F)F)c3)nn3cc(C(F)(F)F)ccc23)n1 | %Inh | 0 |
| COc1cccc(C2=C(N(C)c3ccccc3)C(=O)NC2=O)c1 | %Inh | 2 |

----------
- Tested on: MAK
- EXPERIMENTAL CONDITIONS: concentration: 1 μM, replicates: in singlicate; n = 1
Item-by-item account of %Inh

| COMPOUND | UNIT ABBREV | %Inh |
| --- | --- | --- |
| COc1ccc(-c2cc3c(C)nc(N)nc3n([C@H]3CC[C@H](OCCO)CC3)c2=O)cn1 | % | 0 |
| Nc1nc(N)c2nc(-c3ccccc3)[nH]c2n1 | % | 3 |
| COc1cccc(C2=C(Nc3cccc(C(=O)O)c3)C(=O)NC2=O)c1 | % | 33 |
| C[C@@H]1CC[C@H](C(=O)NC2CCCCC2)CN1c1cc(-c2ccc3c(N)n[nH]c3c2)nc(N)n1 | % | 25 |
| O=C(NCCNc1ccnc(Nc2ccc(F)cc2)n1)Nc1ccc2c(c1)OCO2 | % | 30 |
| CCS(=O)c1ccc(-c2coc3ccc(-c4nnc(C)o4)cc23)cc1 (stereo not drawn) | % | 15 |
| Nc1n[nH]c2nnc(-c3ccccc3)c(-c3ccccc3)c12 | % | 26 |
| Cc1nnc(-c2ccc3ncn(-c4ccc(S(C)=O)cc4)c3c2)o1 (stereo not drawn) | % | 0 |
| Nc1nccc2scc(-c3ccc4c(c3)CCN4C(=O)Cc3ccccc3)c12 | % | 23 |
| CN1C(=O)C(Nc2cc(Cl)c(O)c(Cl)c2)=C(c2ccc(Cl)cc2)C1=O | % | 0 |
| COC(=O)c1c(-c2ccccc2)c2cc(Br)ccc2c(=O)n1Cc1ccc(NC(=O)CCC(=O)O)cc1 | % | 8 |
| Cl.c1ccc(Cn2cnc3cc(Nc4ncnc5ccccc45)ccc32)cc1 | % | 0 |
| CCc1ccc(-c2ccc3c(c2)-c2nn(C)cc2S(=O)(=O)N3C)cc1 | % | 0 |
| O=C(Nc1ccc2c(c1)OCO2)NC1CCN(c2ccnc(NCc3ccc(F)cc3)n2)CC1 | % | 79 |
| COc1cc2ncn(-c3cc(OCCCc4ccccc4)c(C(N)=O)s3)c2cc1OC | % | 4 |
| Cn1c(=O)c(F)c(Nc2ccc(I)cc2F)c2c(=O)n(OC[C@H](O)CO)cnc21 | % | 0 |
| Cc1nc(N(C)[C@H]2CN(C(=O)CC#N)CC[C@H]2C)c2cc[nH]c2n1 | % | 9 |
| Cc1cc(Nc2nc(-c3cccc(C)n3)nc3ccccc23)ccn1 | % | 0 |
| CCC(=O)c1c(-c2ccccc2)c2cc(Cl)ccc2c(=O)n1Cc1cc(C(=O)NC2CC2)n(C)n1 | % | 32 |
| Cc1ccc(Oc2ccc(Nc3ncnc4cc[nH]c34)cc2C)cn1 | % | 25 |
| CCCC(=O)Nc1n[nH]c2ncc(-c3cccc4ccccc34)cc12 | % | 22 |
| O=C(Nc1n[nH]c2nc(-c3ccccc3)c(Cl)cc12)C1CC1 | % | 3 |
| CCn1c(-c2nonc2N)nc2ccccc21 | % | 0 |
| Cc1c(Cn2c(C)nn3c(=O)cc(N4CCO[C@H](C)C4)nc23)cccc1C(F)(F)F | % | 0 |
| Cc1ccccc1COc1cc(-n2cnc3cc(Cl)ccc32)sc1C(N)=O | % | 0 |
| COc1ccc(-n2cnc3c(N)ncnc32)cc1 | % | 0 |
| Nc1ncnc2c1ncn2-c1ccc(Cl)cc1 | % | 8 |
| Nc1ncnc2c1ncn2-c1cccc2ccccc12 | % | 30 |
| COc1ccc(-c2coc3ccc(-c4nnc(SCc5cccc(C#N)c5)o4)cc23)cc1 | % | 36 |
| CCC(=O)c1c(-c2ccccc2)c2cc(Cl)ccc2c(=O)n1Cc1ccc(C(=O)O)cc1 | % | 4 |
| CCC(=O)c1c(-c2ccccc2)c2cc(Cl)ccc2c(=O)n1Cc1cc(S(C)(=O)=O)n(CC(N)=O)n1 | % | 15 |
| CCn1c(-c2ccoc2)nc2cnccc21 | % | 18 |
| COc1cc2ncn(-c3cc(OCc4ccncc4)c(C(N)=O)s3)c2cc1OC | % | 23 |

----------
- Tested on: IRAK3
- EXPERIMENTAL CONDITIONS: concentration: 1 μM, replicates: in singlicate; n = 1
MEASURED PROPERTY: %Inh (%)

| COMPOUND | MEASURED PROPERTY | ENDPOINT VALUE |
| --- | --- | --- |
| Cc1nnc(-c2ccc3ncn(-c4ccc(S(C)=O)cc4)c3c2)o1 (centres unmarked) | %Inh | 0 |
| CCC(=O)c1c(-c2ccccc2)c2cc(Cl)ccc2c(=O)n1Cc1cc(C(=O)NC2CC2)n(C)n1 | %Inh | 0 |
| COc1cc(Nc2ccnc3ccc(C(F)(F)F)cc23)cc(OC)c1OC | %Inh | 6 |
| Cc1cccc(-c2cc(-c3c[nH]nc3-c3ccccn3)ccn2)c1 | %Inh | 1 |
| COc1cc(Nc2nccc(N3CCC(NC(=O)C(C)c4ccc(Cl)cc4)C3)n2)cc(OC)c1OC (centres unmarked) | %Inh | 68 |

----------
- Test system: AURKB
- EXPERIMENTAL CONDITIONS: concentration: 1 μM, replicates: in singlicate; n = 1
Class satisfied: %Inh at least 20%. Class not satisfied: %Inh below 20%.

| MOLECULE | ANSWER LABEL |
| --- | --- |
| COc1cc2ncn(-c3cc(OCCCc4ccccc4)c(C(N)=O)s3)c2cc1OC | not satisfied |
| COc1ccc(-c2cc3c(C)nc(N)nc3n([C@H]3CC[C@H](O)CC3)c2=O)cn1 | not satisfied |
| Cc1nc(N(C)[C@H]2CN(C(=O)CC#N)CC[C@H]2C)c2cc[nH]c2n1 | not satisfied |
| CCn1c(-c2nonc2N)nc2ccccc21 | satisfied |
| COc1cc2ncn(-c3cc(OCc4ccncc4)c(C(N)=O)s3)c2cc1OC | not satisfied |
| COc1cc(Nc2ccnc3ccc(C(F)(F)F)cc23)cc(OC)c1OC | not satisfied |
| Nc1nc(-c2ccccc2F)c(-c2ccnc3ccccc23)s1 | not satisfied |
| Cc1cc(Nc2nc(-c3cccc(C)n3)nc3ccccc23)ccn1 | not satisfied |
| Nc1n[nH]c2ncc(-c3ccccc3)cc12 | satisfied |
| CCC(=O)c1c(-c2ccccc2)c2cc(Cl)ccc2c(=O)n1Cc1cc(S(C)(=O)=O)n(CC(N)=O)n1 | not satisfied |
| CCc1nc(-c2cccc(C)c2)c(-c2ccncc2)s1 | not satisfied |
| O=C1NC(=O)C(c2ccccc2)=C1Nc1cccc(O)c1 | satisfied |
| CC(C)(C)c1ccc(C(=O)Nc2cn3cc(-c4ccccc4)ccc3n2)cc1 | satisfied |
| CCCNC(=O)Nc1ccc(Oc2ncnc3ccn(C)c23)cc1 | satisfied |
| CN1C(=O)C(Nc2cc(Cl)c(O)c(Cl)c2)=C(c2ccc(Cl)cc2)C1=O | not satisfied |
| C[C@@H]1CC[C@H](C(=O)NC2CCCCC2)CN1c1cc(-c2ccc3c(N)n[nH]c3c2)nc(N)n1 | satisfied |
| COc1cccc(-n2cnc3c(N)ncnc32)c1 | satisfied |
| COc1ccc(-c2cc3c(C)nc(N)nc3n([C@H]3CC[C@H](OCCO)CC3)c2=O)cn1 | not satisfied |
| Cl.c1ccc(Cn2cnc3cc(Nc4ncnc5ccccc45)ccc32)cc1 | not satisfied |
| O=C(NCc1cccs1)c1cc(C(=O)c2c(Cl)cccc2Cl)c[nH]1 | not satisfied |
| COc1ccc(-c2coc3ccc(-c4nnc(SCc5cccc(C#N)c5)o4)cc23)cc1 | not satisfied |
| COc1cccc(C2=C(Nc3cccc(C(=O)O)c3)C(=O)NC2=O)c1 | satisfied |
| CCCC(=O)Nc1n[nH]c2ncc(-c3cccc4ccccc34)cc12 | satisfied |
| Nc1nccc2scc(-c3ccc4c(c3)CCN4C(=O)Cc3ccccc3)c12 | not satisfied |
| Cc1cccc(-c2cc(-c3c[nH]nc3-c3ccccn3)ccn2)c1 | not satisfied |
| Cc1ccc(-c2ccc3c(ccc4sc5c(c43)NC[C@@H](C)N=C5N(C)C)n2)cn1 | not satisfied |
| COc1cc2nccc(Nc3ccc(OCc4ccc(NC(C)=O)cc4)cc3)c2cc1OC.Cl | not satisfied |
| COc1cc(Nc2nccc(N3CCC(NC(=O)C(C)c4ccc(Cl)cc4)C3)n2)cc(OC)c1OC (centres unmarked) | satisfied |
| CCS(=O)(=O)c1ccc(OC)c(Nc2ncc(-c3ccc(F)cc3)o2)c1.Cl | not satisfied |
| COc1ccc(Nc2nccc(N3CCC(NS(=O)(=O)c4ccc(NC(C)=O)cc4)C3)n2)cc1 (centres unmarked) | not satisfied |
| CN(C)c1cc(-c2ccc3c(N)n[nH]c3c2)nc(N)n1 | not satisfied |
| Cc1ccc(Oc2ccc(Nc3ncnc4cc[nH]c34)cc2C)cn1 | not satisfied |
| CCC(=O)c1c(-c2ccccc2)c2cc(Cl)ccc2c(=O)n1Cc1cc(C(=O)NC2CC2)n(C)n1 | satisfied |
| O=C(Nc1n[nH]c2cc(-c3ccccc3F)ccc12)C1CC1 | satisfied |
